- test_target: human IR (hIR) (Homo sapiens, UniProt P06213)
- Construct: containing amino acid residues 979-1382 of human IR
- Sequence (P06213 979-1382): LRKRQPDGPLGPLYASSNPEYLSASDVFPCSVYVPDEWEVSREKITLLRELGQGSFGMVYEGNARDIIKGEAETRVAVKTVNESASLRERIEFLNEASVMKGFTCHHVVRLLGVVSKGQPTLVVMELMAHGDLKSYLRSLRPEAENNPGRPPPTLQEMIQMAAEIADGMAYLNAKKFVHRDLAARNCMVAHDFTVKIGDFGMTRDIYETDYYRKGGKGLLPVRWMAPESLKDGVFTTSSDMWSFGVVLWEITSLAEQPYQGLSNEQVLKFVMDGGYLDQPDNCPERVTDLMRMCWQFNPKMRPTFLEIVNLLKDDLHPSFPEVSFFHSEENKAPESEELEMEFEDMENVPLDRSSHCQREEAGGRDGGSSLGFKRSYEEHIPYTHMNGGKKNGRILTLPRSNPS
- assay_info: TR-FRET kinase assay of purified hIR
- condition_parameters: activated hIR 0.5 nM, 10 μM ATP, values given as pIC50 category
- Procedure: Time Resolved Fluorescence Resonance Energy Transfer (TR-FRET) assays were carried out on the exemplified compounds as follows: Purity is determined by HPLC. The calculated molecular mass of the peptide is 2216 dalton. […] True peptide concentration is determined by amino acid analysis. […] Assays are performed in 384-well (Greiner, Catalog No. 784076) microtiter plates. […] Compounds, titrated in DMSO, are evaluated at eleven concentrations ranging from 50 μM to 0.2 nM. […]
recorded_endpoint: IC50

Example entries begin here.
{"molecule": "COc1cc2c(cc1Nc1nc(Nc3cccc(F)c3C(N)=O)c3cc[nH]c3n1)CN(C(C)C)CC2 [Example 236]", "IC50": "1.26 to 3.98 nM"}
{"molecule": "CNC(=O)c1c(F)cccc1Nc1nc(Nc2cc3c(cc2OC)C(C)(C)CCN3C(=O)CN2CCCC2)nc2[nH]ccc12 [Example 224]", "IC50": "0.251 to 1 nM"}
{"molecule": "COc1cc(C2CCCN(C)C2)ccc1Nc1nc(Nc2ccc(F)cc2C(N)=O)c2cc[nH]c2n1 (centres unmarked) [Example 56]", "IC50": "0.251 to 1 nM"}
{"molecule": "CCCN1CCC=C(c2ccc(Nc3nc(Nc4ccccc4C(=O)NC)c4cc[nH]c4n3)c(OC)c2)C1 [Example 23]", "IC50": "0.251 to 1 nM"}

Query molecule follows.
Q: Identify the measured IC50 of COc1cc2c(cc1Nc1nc(Nc3cccc(F)c3C(=O)NC(C)C)c3cc[nH]c3n1)N(C(=O)CN(C)C)CC2 [Example 158] for human IR (hIR) (Homo sapiens, UniProt P06213).
Ans: 1.26 to 3.98 nM
